Experiment: TOR branch reporter RPL19A-GFP response – cell-based, S. cerevisiae, third cherry pick, flow cytometry, confirmation (AID 504336);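 also: median GFP fluorescence of all gated yeast cells by flow cytometry; ratio of well median fluorescence to plate mean of DMSO wells with DMSO = 100%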
Conditions: S. cerevisiae RPL19A-GFP strain, 3 h, at 10 µM
Calls of active or inactive are those of the source.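 The calls were made as follows: active = compounds whose GFP signal falls below 65% of the DMSO control level; inconclusive = fewer than 70 yeast cells counted in the well; inactive = the rest.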
Choose one outcome from this list and give only that: 1.0 = active, 0.0 = inactive

Below, 3 compounds whose answers are already recorded.
Cc1cccc(Nc2cc(=O)[nH]c(=O)[nH]2)c1C ... 0.0
C/C(=C\C(=O)c1ccc(Cl)cc1)Nc1ccc(Br)cc1 ... 0.0
CSc1ccccc1OCc1cc(C(=O)N2CCN(C)C(c3ccccc3)C2)no1 (configuration not stated) ... 0.0

Proceed to the following item.
(Q) Hi, sorry to bother you, what did the test record for C/C(=N\NC(=O)c1ccccc1)c1ccccc1F ?
(A) 0.0

====

For each record, write down the corresponding GFP response relative to DMSO.
Test: TOR branch reporter RPL19A-GFP response – cell-based, S. cerevisiae, third cherry pick, flow cytometry, confirmation (AID 504336);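 also: median GFP fluorescence of all gated yeast cells by flow cytometry; ratio of well median fluorescence to plate mean of DMSO wells with DMSO = 100%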
Settings: S. cerevisiae RPL19A-GFP strain, 3 h, at 10 µM, active compounds read low
Answers are plain numbers, in %.

Answered examples (3):
Cc1ccc(C(=O)Nc2nc(-c3ccccn3)cs2)o1 ... 99.3
Cc1ccc2c(Cl)cc(Cl)c(OCC(=O)O)c2n1 ... 104
CNc1nc(C)c([N+](=O)[O-])c(Nc2ccc(OC)cc2)n1 ... 102

Items follow; give GFP response relative to DMSO for each.
1. CCN(CC)C(=O)Oc1ccnc2cc(Cl)ccc12
2. O=C(N/N=C/c1ccccc1F)c1cccc2ccccc12

(A)
[103, 100]

====

Assay: TOR branch reporter RPL19A-GFP response – cell-based, S. cerevisiae, third cherry pick, flow cytometry, confirmation (AID 504336);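 also: median GFP fluorescence of all gated yeast cells by flow cytometry; ratio of well median fluorescence to plate mean of DMSO wells with DMSO = 100%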
Details: S. cerevisiae RPL19A-GFP strain, 3 h, at 10 µM
Active and inactive are the calls of the source.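 The calls were made as follows: active = compounds whose GFP signal falls below 65% of the DMSO control level; inconclusive = fewer than 70 yeast cells counted in the well; inactive = the rest.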
Choose one outcome from this list and give only that: 1.0 for active, 0.0 for inactive

Cc1nc(Nc2ccc(Br)cc2Br)c([N+](=O)[O-])c(=O)[nH]1 ... 0.0
Cc1ccc(-c2cc(C(F)F)nc(S(C)(=O)=O)n2)cc1 ... 0.0

(Q) Hi, sorry to bother you, what did the test record for Cc1ccc(NN2C(=O)C=C(c3ccccc3)C2=O)cc1 ?
(A) 1.0

====

Assay: TOR branch reporter RPL19A-GFP response – cell-based, S. cerevisiae, third cherry pick, flow cytometry, confirmation (AID 504336);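 also: median GFP fluorescence of all gated yeast cells by flow cytometry; ratio of well median fluorescence to plate mean of DMSO wells with DMSO = 100%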
Conditions: S. cerevisiae RPL19A-GFP strain, 3 h, at 10 µM, active compounds read low
quantityKind: GFP response relative to DMSO (%)
Answers are plain numbers, in %.

Answered examples (7):
COc1ccc(OC)c2c(C)cc(C)nc12 ... 98.5
O=C(Nc1nc(-c2ccccn2)cs1)c1ccccc1-n1cnnn1 ... 98.8
C=CCNc1ncnc2ccccc12 ... 103
CC(=O)Nc1ccc(-c2nc3cc(Cl)ccc3o2)cc1 ... 99.3
O=C(Nc1ccccc1)O/N=C1\CCCCC1c1ccc([N+](=O)[O-])cc1[N+](=O)[O-] (stereo not drawn) ... 96.5
O=C(O)c1ccc2cccnc2c1O ... 100
Oc1c(Cl)cc(Cl)c2cccnc12 ... 81.6

Now for a further compound.
(Q) Any idea what its GFP response relative to DMSO is? The compound is CC(=O)C(CC(=O)N1CCCC1)C(=O)Nc1ccc(Cl)cc1 (stereo not drawn)
(A) 102
